test system: THP-1; assay: Cytotoxicity against human THP1 cells assessed as growth inhibition after 24 hrs by MTT assay; settings: THP-1, 24 h
Hi there, I'd appreciate the recorded log10(IC50) for every entry that follows.
Parameter value (number): base-10 log of IC50 in µg/mL.

Example results:
Cc1ccc2[nH]cc(C3(O)C(=O)Nc4ccc(I)cc43)c2c1 (stereo not given) ... 1.94
O=C1Nc2ccc(Br)cc2C1(O)c1c[nH]c2ccc(Br)cc12 (stereo not given) ... 1.94
O=C1Nc2ccc(OC(F)(F)F)cc2C1(O)c1c[nH]c2ccccc12 (stereo not given) ... 1.14
O=C1N(Cc2ccccc2)c2ccccc2C1(O)c1c[nH]c2ccc(Br)cc12 (stereo not given) ... 1.15
O=C1N(Cc2ccccc2Cl)c2ccc(Cl)cc2C1(O)c1c[nH]c2ccccc12 (stereo not given) ... 0.85
COc1ccc2[nH]cc(C3(O)C(=O)N(Cc4ccccc4Cl)c4ccccc43)c2c1 (stereo not given) ... 0.75

For each entry beneath this line, provide reported log10(IC50).
1. COc1ccc2[nH]cc(C3(O)C(=O)Nc4ccc(I)cc43)c2c1 (stereo not given)
2. O=C1N(Cc2ccccc2)c2ccc(Cl)cc2C1(O)c1c[nH]c2ccccc12 (stereo not given)
3. O=C1N(Cc2ccc(Br)cc2)c2ccc(Cl)cc2C1(O)c1c[nH]c2ccc(Br)cc12 (stereo not given)
4. O=C1Nc2ccc(F)cc2C1(O)c1c[nH]c2ccc(Br)cc12 (stereo not given)
5. O=C1Nc2ccc(Cl)cc2C1(O)c1c[nH]c2ccc(Br)cc12 (stereo not given)
6. O=C1N(Cc2ccccc2Cl)c2ccc(Cl)cc2C1(O)c1c[nH]c2ccc(Br)cc12 (stereo not given)
7. O=C1Nc2c(Cl)cccc2C1(O)c1c[nH]c2ccccc12 (stereo not given)

result:
1: 1.84; 2: 0.70; 3: 0.78; 4: 1.88; 5: 1.99; 6: 0.79; 7: 1.94

----------
Hi there, I'd appreciate the recorded IC50 for every entry that follows.
tested on: THP-1; assay: Cytotoxicity against human THP1 cells assessed as growth inhibition after 24 hrs by MTT assay; conditions: THP-1, 24 h
One number for each entry, in µg/mL.

Example results:
O=C1N(Cc2ccccc2Cl)c2ccccc2C1(O)c1c[nH]c2ccccc12 (configuration not stated) ... 6.97
O=C1N(Cc2ccccc2Cl)c2ccccc2C1(O)c1c[nH]c2ccc(Br)cc12 (configuration not stated) ... 7.37
O=C1N(Cc2ccccc2)c2ccccc2C1(O)c1c[nH]c2ccccc12 (configuration not stated) ... 64.5
O=C1N(Cc2ccccc2)c2ccc(Cl)cc2C1(O)c1c[nH]c2ccc(Br)cc12 (configuration not stated) ... 7.12
COc1ccc2[nH]cc(C3(O)C(=O)N(Cc4ccccc4Cl)c4ccc(Cl)cc43)c2c1 (configuration not stated) ... 4.27

For each entry beneath this line, provide reported IC50.
1. O=C1N(Cc2ccccc2Br)c2ccccc2C1(O)c1c[nH]c2ccc(Br)cc12 (configuration not stated)
2. O=C1Nc2ccc(I)cc2C1(O)c1c[nH]c2ccc(F)cc12 (configuration not stated)

result:
1. 6.93
2. 62.4
